# systemName: T1, recombinant human CTLA4-his protein (Acro biosystems, Cat#CT4-H5229) (human, UniProt P16410 37-162)
# T1 construct: bought recombinant protein; not shown: his tag
# T1 sequence (looked up): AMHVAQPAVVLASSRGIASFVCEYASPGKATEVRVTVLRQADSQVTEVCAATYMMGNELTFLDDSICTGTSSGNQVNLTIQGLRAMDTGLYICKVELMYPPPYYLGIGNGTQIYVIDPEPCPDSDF
# protocolDetails: SPR, Biacore T200; antibody captured, CTLA4-his as analyte
readoutLabel: kon (M⁻¹ s⁻¹)
Write the answer as a number in M⁻¹ s⁻¹, unit excluded.

mouse anti-CTLA4 monoclonal antibody C1D1 (antibody, V domains shown, mouse mAb purified from hybridoma supernatant) VH: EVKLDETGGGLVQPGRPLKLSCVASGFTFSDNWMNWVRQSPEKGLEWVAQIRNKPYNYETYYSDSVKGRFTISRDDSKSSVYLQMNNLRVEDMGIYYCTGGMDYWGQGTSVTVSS VL: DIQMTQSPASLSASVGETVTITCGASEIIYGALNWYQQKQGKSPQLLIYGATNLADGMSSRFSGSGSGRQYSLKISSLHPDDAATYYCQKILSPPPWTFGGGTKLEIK
251000

--- query ---
input: Determine its reported kon: mouse anti-CTLA4 monoclonal antibody D1A7 (antibody, V domains shown, mouse mAb purified from hybridoma supernatant) VH: QVTLKESGPGMLQPSQTLSLTCSFSGFSLSSSKLGVGWIRQPAGKGLEWLAHIWWNDDNYYVPSLKSRLTISKDTSNNQVFLKITNVDAADTATYYCVQVPYYTTQPWFAYWGQGTLVTVSA VL: DIQMTQSPASLSASVGETVTITCRASGNIHNYLAWYLQNQGRSPQLLVYNTETLADGVSSRFSGSGSGTQYFLKISSLQPEDFGTYYCQHLWSTPWTFGGGTKLEIK
output: 249000
